# Tested on: KU-812
# Measurement description: cell viability (% survival relative to DMSO control, bortezomib = 0%); higher = less cytotoxic
# Condition context: 10 nM; 72 h
Parameter: cell viability (%)
Give bare numbers, in %.

Respectfully, I request cell viability for each entry included below.
1. CNC(=C[N+](=O)[O-])NCCSCc1ccc(CN(C)C)o1 [Ranitidine]
2. O=C(Oc1ccc([N+](=O)[O-])cc1)N1CCC(C(O)(c2ccc3c(c2)OCO3)c2ccc3c(c2)OCO3)CC1 [JZL184]
3. NCc1ccc(S(N)(=O)=O)cc1 [4-Homosulfanilamide]

[101, 102, 93.1]

Respectfully, I request cell viability for each entry included below.
1. NS(=O)(=O)c1ccc(NC(=O)Cc2ccccc2)cc1 [4-(2-Phenylacetamido)Benzenesulfonamide]
2. OC[C@H]1N[C@@H](c2c[nH]c3c(O)ncnc23)[C@H](O)[C@@H]1O [Forodesine]
3. C[C@H]1O[C@H](O[C@H]2[C@H](O)[C@@H](O)[C@@H](O[C@H]3[C@H](O)[C@@H](O)C(O)O[C@@H]3CO)O[C@@H]2CO)[C@H](O)[C@@H](O)[C@@H]1N[C@H]1C=C(CO)[C@@H](O)[C@H](O)[C@H]1O (mixture of isomers) [Acarbose]
4. NS(=O)(=O)c1ccc(S(=O)(=O)Nc2cccc3c(Cl)c[nH]c23)cc1 [Indisulam]
5. CC(=O)N1CCN(c2ccc(OC[C@@H]3CO[C@@](Cn4ccnc4)(c4ccc(Cl)cc4Cl)O3)cc2)CC1 (racemic) [Ketoconazole]
6. COc1ccc2c(c1)c(CC(=O)O)c(C)n2C(=O)c1ccc(Cl)cc1 [Indomethacine]

1: 99.1; 2: 96; 3: 94.5; 4: 99.1; 5: 102; 6: 101

Respectfully, I request cell viability for each entry included below.
1. OCCN(CCO)c1nc(N2CCCCC2)c2nc(N(CCO)CCO)nc(N3CCCCC3)c2n1 [Dipyridamole]
2. OC[C@H]1OC(O)C[C@@H](O)[C@@H]1O (stereo partly specified) [2-deoxyglucose]
3. CCCCCCCNC=O [N-Heptyl-Formamide]
4. O=[As]O[As]=O (stereo unspecified) [Arsenic trioxide]

1: 98.7; 2: 101; 3: 97.3; 4: 105

###

# System: myeloid leukemia patient primary cells Pat.8
# Measurement description: cell viability (% survival relative to DMSO control); higher = less cytotoxic
# Condition context: 10 nM; 72 h
Parameter: cell viability (%)
One number for each entry, in %.

# count of solved cases: 3
[[record]]
compound = "CN(C)CCNC(=O)c1cccn2c(=O)c3cc4ccccc4cc3nc12 [Bmh-21]"
parameter = "cell viability"
endpoint_value = 74.6

[[record]]
compound = "O=C(Oc1cccc(F)c1OC(=O)c1cccc(O)c1)c1cccc(O)c1 [WZB117]"
parameter = "cell viability"
endpoint_value = 67.8

[[record]]
compound = "CCCCCCCCCCCCC/C=C/[C@@H](O)[C@H](CO)N(C)C [N,N-Dimethylsphingosine]"
parameter = "cell viability"
endpoint_value = 86.8


Respectfully, I request cell viability for each entry included below.
1. Cc1nnc(-c2ccc(N3CCC(Oc4ccccc4C(F)(F)F)CC3)nn2)s1 [MF-438]
2. Fc1ccc(CNc2ncnc3ccc(F)cc23)cc1 [Spautin 1]
3. CC(C)c1onc(-c2c(Cl)cccc2Cl)c1COc1ccc(/C=C/c2cccc(C(=O)O)c2)c(Cl)c1 [GW 4064]

1: 94.5; 2: 82.1; 3: 88.4

###

# Test system: MV4-11
# Measurement description: cell viability (% survival relative to DMSO control, bortezomib = 0%); higher = less cytotoxic
# Condition context: 10 nM; 72 h
Parameter: cell viability (%)
Answers are plain numbers, in %.

[[record]]
molecule = "OCC(CO)N[C@H]1C[C@](O)(CO)[C@@H](O)[C@H](O)[C@H]1O"
system_name = "MV4-11"
endpoint_value = 107

[[record]]
molecule = "O=C(Cc1cccc(OC(F)(F)F)c1)Nc1ccc(CCCCc2nnc(NC(=O)Cc3ccccn3)s2)nn1"
system_name = "MV4-11"
endpoint_value = 86

[[record]]
molecule = "OC[C@H]1N[C@@H](c2c[nH]c3c(O)ncnc23)[C@H](O)[C@@H]1O"
system_name = "MV4-11"
endpoint_value = 94.5


Respectfully, I request cell viability for each entry included below.
1. CCCCCCCCCCCCCCOc1ccc(C(=O)O)o1
2. CN(C)CCNC(=O)c1cccn2c(=O)c3cc4ccccc4cc3nc12
3. Oc1ncc(F)c(O)n1
4. CCCCCCCNC=O [N-Heptyl-Formamide]
5. Cl.NC1=CCCN1Cc1nc(O)nc(O)c1Cl
6. O=C1N[C@@H]2[C@@H](O)[C@@H](O)[C@H](O)[C@@H](CO)N2C1=O

87.9
85.5
111
105
105
96.3

Respectfully, I request cell viability for each entry included below.
1. Cn1c2cc(S(C)=O)sc2c2cnn(Cc3cccc(N)c3)c(=O)c21 (stereo not drawn)
2. CN(C)C(=N)NC(=N)N
3. CCC(CC#N)OC(=O)N[C@@H](C)c1cccc(NC(=O)Nc2ccc(-c3cnco3)c(OC)c2)c1 (stereo in doubt)

[100, 79.7, 96.4]

Respectfully, I request cell viability for each entry included below.
1. Cc1[nH]n(-c2ccccc2)c(=O)c1C1(C(F)(F)F)C(=O)N(c2ccccc2)C2=C1C(=O)CC(C)(C)C2 (stereo not drawn)
2. O=C(CCl)N(CCCNC(=O)C(F)(F)F)c1ccc([N+](=O)[O-])cc1
3. C[C@H]1O[C@H](O[C@H]2[C@H](O)[C@@H](O)[C@@H](O[C@H]3[C@H](O)[C@@H](O)C(O)O[C@@H]3CO)O[C@@H]2CO)[C@H](O)[C@@H](O)[C@@H]1N[C@H]1C=C(CO)[C@@H](O)[C@H](O)[C@H]1O (mixture of isomers)
4. NS(=O)(=O)c1ccc(NC(=O)Cc2ccccc2)cc1 [4-(2-Phenylacetamido)Benzenesulfonamide]
5. C#CCN[C@@H]1CCc2ccccc21
6. CC(C)(CS(=O)(=O)[O-])NC(=O)CC[N+](C)(C)CCO
7. O=c1oc2c(cc1O)oc(=O)c1cc(O)c(O)c(O)c12
8. CC(=O)N[C@@H](CS)C(=O)O

1. 104
2. 93
3. 73
4. 109
5. 104
6. 101
7. 102
8. 102

###

Exercise: for every item that follows, state its recorded cell viability.
# Test system: myeloid leukemia patient primary cells Pat.5
# Measurement description: cell viability (% survival relative to DMSO control); higher = less cytotoxic
# Condition context: 10 nM; 72 h
Numbers only, in %.

[[record]]
compound = "NS(=O)(=O)c1ccc(S(=O)(=O)Nc2cccc3c(Cl)c[nH]c23)cc1 [Indisulam]"
units_symbol = "%"
endpoint_value = 70.8

[[record]]
compound = "CCC(CC#N)OC(=O)N[C@@H](C)c1cccc(NC(=O)Nc2ccc(-c3cnco3)c(OC)c2)c1 (stereo in doubt) [AVN-944]"
units_symbol = "%"
endpoint_value = 45.4

[[record]]
compound = "Clc1cc(Cl)c(OCC#CI)cc1Cl [Haloprogin]"
units_symbol = "%"
endpoint_value = 69.7

[[record]]
compound = "O=C(c1c2ccccc2cc2ccccc12)N1CCC(N2CCC[C@@H](C(=O)N3CCOCC3)C2)CC1"
units_symbol = "%"
endpoint_value = 67.2


Bench note: what cell viability did CN(C)CCNC(=O)c1cccn2c(=O)c3cc4ccccc4cc3nc12 [Bmh-21] show?
94.1

###

# Test system: myeloid leukemia patient primary cells Pat.15
# Measurement description: cell viability (% survival relative to DMSO control); higher = less cytotoxic
# Condition context: 10 nM; 72 h
Parameter: cell viability (%)
Numbers only, in %.

Respectfully, I request cell viability for each entry included below.
1. Clc1cc(Cl)c(OCC#CI)cc1Cl [Haloprogin]
2. O=C(Oc1cccc(F)c1OC(=O)c1cccc(O)c1)c1cccc(O)c1 [WZB117]
3. CCn1c(=O)/c(=C2\Sc3ccccc3N2C)s/c1=C\c1cccc[n+]1CC.[Cl-] [MKT-077]
4. Cc1nnc(-c2ccc(N3CCC(Oc4ccccc4C(F)(F)F)CC3)nn2)s1 [MF-438]
5. O=C(Cc1cccc(OC(F)(F)F)c1)Nc1ccc(CCCCc2nnc(NC(=O)Cc3ccccn3)s2)nn1 [CB-839]
6. O=C(c1c2ccccc2cc2ccccc12)N1CCC(N2CCC[C@@H](C(=O)N3CCOCC3)C2)CC1

1: 98.8; 2: 78.9; 3: 93.1; 4: 89.5; 5: 89.2; 6: 94.5

###

# Tested on: HL-60
# Measurement description: cell viability (% survival relative to DMSO control); higher = less cytotoxic
# Condition context: 10 µM; 72 h; co-treatment: DMSO vehicle
Exercise: for every item that follows, state its recorded cell viability.
Give bare numbers, in %.

# count of solved cases: 5
[[record]]
compound = "CC(C)c1ccc2c(c1)c(SC(C)(C)C)c(CC(C)(C)C(=O)O)n2Cc1ccc(Cl)cc1"
parameter = "cell viability"
units_symbol = "%"
endpoint_value = 110

[[record]]
compound = "CCC(CC#N)OC(=O)N[C@@H](C)c1cccc(NC(=O)Nc2ccc(-c3cnco3)c(OC)c2)c1 (stereo in doubt)"
parameter = "cell viability"
units_symbol = "%"
endpoint_value = 12.9

[[record]]
compound = "OC[C@H]1N[C@@H](c2c[nH]c3c(O)ncnc23)[C@H](O)[C@@H]1O"
parameter = "cell viability"
units_symbol = "%"
endpoint_value = 100

[[record]]
compound = "c1ccc2nc(-c3nnc4sc(-c5cnccn5)nn34)ccc2c1"
parameter = "cell viability"
units_symbol = "%"
endpoint_value = 102

[[record]]
compound = "Cc1cc(O)c2c(c1)C(=O)c1cc(O)cc(O)c1C2=O"
parameter = "cell viability"
units_symbol = "%"
endpoint_value = 103


Respectfully, I request cell viability for each entry included below.
1. CC(=O)N[C@@H](CS)C(=O)O
2. Cn1c2cc(S(C)=O)sc2c2cnn(Cc3cccc(N)c3)c(=O)c21 (centres undefined)
3. CCCC(CCC)C(=O)O
4. C=C1NC(=O)c2cc(CN(C)c3ccc(C(=O)N[C@@H](CCC(=O)O)C(=O)O)s3)ccc2N1
5. Cn1cc(C[C@@H](N)C(=O)O)c2ccccc21
6. Cc1[nH]n(-c2ccccc2)c(=O)c1C1(C(F)(F)F)C(=O)N(c2ccccc2)C2=C1C(=O)CC(C)(C)C2 (centres undefined)
7. N[C@@H](CCC(=O)N[C@@H](CS)C(=O)NCC(=O)O)C(=O)O
8. Cl.NC1=CCCN1Cc1nc(O)nc(O)c1Cl

[93.7, 107, 105, 27.6, 96.7, 102, 102, 100]

Respectfully, I request cell viability for each entry included below.
1. C#CCN[C@@H]1CCc2ccccc21
2. CC(C)(F)C[C@H](N[C@@H](c1ccc(-c2ccc(S(C)(=O)=O)cc2)cc1)C(F)(F)F)C(=O)NC1(C#N)CC1

95.4
97.6

Data provenance: the supplement of paper PMC8671470
